Where do the numbers come from? From patent US20240252488A1.

- Measurement Target: UniProt Q8NB16
- Sequence (Q8NB16 1-471): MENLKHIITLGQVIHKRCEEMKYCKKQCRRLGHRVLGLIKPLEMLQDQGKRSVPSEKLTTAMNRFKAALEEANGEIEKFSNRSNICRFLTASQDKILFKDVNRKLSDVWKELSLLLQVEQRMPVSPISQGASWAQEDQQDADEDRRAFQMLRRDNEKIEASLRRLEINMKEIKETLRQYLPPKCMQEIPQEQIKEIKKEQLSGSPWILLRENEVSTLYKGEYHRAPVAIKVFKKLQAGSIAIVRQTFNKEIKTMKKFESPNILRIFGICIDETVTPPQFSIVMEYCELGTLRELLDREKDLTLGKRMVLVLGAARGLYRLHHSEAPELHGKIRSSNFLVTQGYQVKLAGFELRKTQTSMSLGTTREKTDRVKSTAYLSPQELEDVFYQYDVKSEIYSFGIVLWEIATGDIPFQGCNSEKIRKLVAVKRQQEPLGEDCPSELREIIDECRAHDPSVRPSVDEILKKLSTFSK
- Run Description: MLKL degradation assay in HepG2 cell line (western blot)
- Type: cell-based
- Set-up: endogenous in cells; host or cells: HepG2 or HaCaT
- Conditions Used: compound 1 μM; cell line not given
Outcome Measure: Degradation assay (Degradation %) 1 μM

COc1ccc(C(=O)N2CCC(CCN3CCC(n4cc(-c5cnc(N)c(C(=O)O[C@@H](C(=O)Nc6ccc(F)cc6)c6ccccc6)n5)cn4)CC3)CC2)cc1N1CCC(=O)NC1=O [TDH-446] :: 57.4

a = Nc1ncc(-c2cnn(C3CCN(CCCN4CCN(C(=O)CC5CCN(c6cccc7c6C(=O)N(C6CCC(=O)NC6=O)C7=O)CC5)CC4)CC3)c2)nc1C(=O)O[C@@H](C(=O)Nc1ccc(F)cc1)c1ccccc1 (some centres unmarked) [TDH-368]
b = Nc1ncc(-c2cnn(C3CCN(CCC4CCN(CC5CCN(c6cc7c(cc6F)C(=O)N(C6CCC(=O)NC6=O)C7=O)CC5)CC4)CC3)c2)nc1C(=O)O[C@@H](C(=O)Nc1ccc(F)cc1)c1ccccc1 (some centres unmarked) [TDH-514]
[Q] For the two items a and b , which reports the higher Degradation assay (Degradation %) 1 μM value? Please identify the chosen entry by its label.
[A] a

I = Nc1ncc(-c2cnn([C@@H]3CCN(CC4CCN(C(=O)COc5ccc6c(c5)C(=O)N(C5CCC(=O)NC5=O)C6=O)CC4)C3)c2)nc1C(=O)OC(C(=O)Nc1ccc(F)cc1)c1ccccc1 (some centres unmarked) [TDH-288]
II = COc1ccc(C(=O)N2CCC(CN3CCC(n4cc(-c5cnc(N)c(C(=O)O[C@@H](C(=O)Nc6ccc(F)cc6)c6ccccc6)n5)cn4)CC3)CC2)cc1N1CCC(=O)NC1=O [TDH-445]
[Q] Record comparison, field Degradation assay (Degradation %) 1 μM: mark the lower of I and II . Please identify the chosen entry by its label.
[A] II
(II: 20.29%, I: 75.31%)

---

- Measurement Target: MLKL (Homo sapiens, UniProt Q8NB16)
- Sequence (Q8NB16 1-471): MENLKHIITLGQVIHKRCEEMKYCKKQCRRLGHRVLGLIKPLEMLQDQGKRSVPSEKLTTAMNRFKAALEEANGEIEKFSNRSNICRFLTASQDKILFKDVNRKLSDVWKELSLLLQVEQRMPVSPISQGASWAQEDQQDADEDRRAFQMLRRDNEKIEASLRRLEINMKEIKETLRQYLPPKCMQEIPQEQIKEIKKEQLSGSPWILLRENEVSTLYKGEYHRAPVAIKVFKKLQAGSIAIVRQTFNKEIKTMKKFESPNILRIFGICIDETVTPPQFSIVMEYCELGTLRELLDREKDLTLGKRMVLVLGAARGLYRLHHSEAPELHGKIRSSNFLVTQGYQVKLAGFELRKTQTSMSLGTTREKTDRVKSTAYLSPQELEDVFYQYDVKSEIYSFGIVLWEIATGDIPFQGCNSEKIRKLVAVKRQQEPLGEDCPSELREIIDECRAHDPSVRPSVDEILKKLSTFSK
- Run Description: MLKL degradation assay in HepG2 cell line (western blot)
- Type: cell-based
- Set-up: endogenous in cells; host or cells: HepG2 or HaCaT
- Conditions Used: compound 1 μM; cell line not given
Outcome Measure: Degradation assay (Degradation %) 1 μM

Solved cases below.
Nc1ncc(-c2cnn(C3CCN(C(=O)CC4CCN(C(=O)C5CCN(c6ccc7c(c6)C(=O)N(C6CCC(=O)NC6=O)C7=O)CC5)CC4)CC3)c2)nc1C(=O)O[C@@H](C(=O)Nc1ccc(F)cc1)c1ccccc1 (stereo partly shown) :: 70.74
Nc1ncc(-c2cnn(C3CCN(CC4CCN(C(=O)Cc5cccc(NC6=CC(=O)N(C7CCC(=O)NC7=O)C6=O)c5)CC4)CC3)c2)nc1C(=O)O[C@@H](C(=O)Nc1ccc(F)cc1)c1ccccc1 (stereo partly shown) :: 81.44
COc1ccc(C(=O)N2CCC(CN3CCC4(CC3)CC(N3CCC(n5cc(-c6cnc(N)c(C(=O)O[C@@H](C(=O)Nc7ccc(F)cc7)c7ccccc7)n6)cn5)CC3)C4)CC2)cc1N1CCC(=O)NC1=O :: 90.60
Nc1ncc(-c2ccc(N3CCN(CCOCCOCCNC(=O)COc4ccc5c(c4)C(=O)N(C4CCC(=O)NC4=O)C5=O)CC3)nc2)nc1C(=O)OC(C(=O)Nc1ccc(F)cc1)c1ccccc1 (stereo not shown) :: 58.43
Nc1ncc(-c2cnn([C@H]3CCN(CCOCCOCCNC(=O)CNc4ccc5c(c4)C(=O)N(C4CCC(=O)NC4=O)C5=O)C3)c2)nc1C(=O)OC(C(=O)Nc1ccc(F)cc1)c1ccccc1 (stereo partly shown) :: 65.05

I = Nc1ncc(-c2cnn(C3CCN(C(=O)c4cn(C5CCN(C(=O)CNc6ccc7c(c6)C(=O)N(C6CCC(=O)NC6=O)C7=O)CC5)cn4)CC3)c2)nc1C(=O)O[C@@H](C(=O)Nc1ccc(F)cc1)c1ccccc1 (stereo partly shown)
II = Nc1ncc(-c2cnn(C3CCN(CC4CCN(CC(=O)N5CC(Nc6cccc7c6C(=O)N(C6CCC(=O)NC6=O)C7=O)C5)CC4)CC3)c2)nc1C(=O)OC(C(=O)Nc1ccc(F)cc1)c1ccccc1 (stereo not shown)
[Q] For the two items I and II , which reports the higher Degradation assay (Degradation %) 1 μM value? Please identify the chosen entry by its label.
[A] I
(I: 51.1%, II: 1.47%)

P = Nc1ncc(-c2cnn(C3CCN(C(=O)CCC4CCN(C(=O)C5CN(c6cccc7c6C(=O)N(C6CCC(=O)NC6=O)C7=O)C5)CC4)CC3)c2)nc1C(=O)O[C@@H](C(=O)Nc1ccc(F)cc1)c1ccccc1 (stereo partly shown)
Q = Nc1ncc(-c2cnn(C3CCN(CC4CCN(CCC5CCN(c6cc7c(cc6F)C(=O)N(C6CCC(=O)NC6=O)C7=O)CC5)CC4)CC3)c2)nc1C(=O)O[C@@H](C(=O)Nc1ccc(F)cc1)c1ccccc1 (stereo partly shown)
[Q] Record comparison, field Degradation assay (Degradation %) 1 μM: mark the lower of P and Q . Please identify the chosen entry by its label.
[A] Q

1 = Nc1ncc(-c2cnn(C3CCN(CCCN4CCN(C(=O)COc5ccc6c(c5)C(=O)N(C5CCC(=O)NC5=O)C6=O)CC4)CC3)c2)nc1C(=O)OC(C(=O)Nc1ccc(F)cc1)c1ccccc1 (stereo not shown)
2 = Nc1ncc(-c2cnn(C3CCN(CC4CCN(C(=O)C5CCN(c6cccc7c6C(=O)N(C6CCC(=O)NC6=O)C7=O)CC5)CC4)CC3)c2)nc1C(=O)N[C@@H](C(=O)Nc1ccc(F)cc1)c1ccccc1 (stereo partly shown)
[Q] For the two items 1 and 2 , which reports the higher Degradation assay (Degradation %) 1 μM value? Please identify the chosen entry by its label.
[A] 1

1 = Nc1ncc(-c2cnn(C3CCN(C(=O)CCC4CCN(C(=O)C5CN(c6ccc7c(c6)C(=O)N(C6CCC(=O)NC6=O)C7=O)C5)CC4)CC3)c2)nc1C(=O)O[C@@H](C(=O)Nc1ccc(F)cc1)c1ccccc1 (stereo partly shown)
2 = Nc1ncc(-c2cnn(C3CCN(C(=O)C4CCN(C(=O)CC5CCN(c6ccc7c(c6)C(=O)N(C6CCC(=O)NC6=O)C7=O)CC5)CC4)CC3)c2)nc1C(=O)O[C@@H](C(=O)Nc1ccc(F)cc1)c1ccccc1 (stereo partly shown)
[Q] For the two items 1 and 2 , which reports the higher Degradation assay (Degradation %) 1 μM value? Please identify the chosen entry by its label.
[A] 2

a = Nc1ncc(-c2cnn(C3CCN(CC4CN(C(=O)COc5cccc6c5C(=O)N(C5CCC(=O)NC5=O)C6=O)CCO4)CC3)c2)nc1C(=O)OC(C(=O)Nc1ccc(F)cc1)c1ccccc1 (stereo not shown)
b = Nc1ncc(-c2cnn(C3CCN(CCC4CCN(C(=O)c5ccc6c(c5)CN(C5CCC(=O)NC5=O)C6=O)CC4)CC3)c2)nc1C(=O)O[C@@H](C(=O)Nc1ccc(F)cc1)c1ccccc1 (stereo partly shown)
[Q] For the two items a and b , which reports the higher Degradation assay (Degradation %) 1 μM value? Please identify the chosen entry by its label.
[A] b
(b: 93.36%, a: 55.12%)
